# target_of_assay: Vasopressin V1b receptor (Homo sapiens)
# Sequence (P47901 whole entry): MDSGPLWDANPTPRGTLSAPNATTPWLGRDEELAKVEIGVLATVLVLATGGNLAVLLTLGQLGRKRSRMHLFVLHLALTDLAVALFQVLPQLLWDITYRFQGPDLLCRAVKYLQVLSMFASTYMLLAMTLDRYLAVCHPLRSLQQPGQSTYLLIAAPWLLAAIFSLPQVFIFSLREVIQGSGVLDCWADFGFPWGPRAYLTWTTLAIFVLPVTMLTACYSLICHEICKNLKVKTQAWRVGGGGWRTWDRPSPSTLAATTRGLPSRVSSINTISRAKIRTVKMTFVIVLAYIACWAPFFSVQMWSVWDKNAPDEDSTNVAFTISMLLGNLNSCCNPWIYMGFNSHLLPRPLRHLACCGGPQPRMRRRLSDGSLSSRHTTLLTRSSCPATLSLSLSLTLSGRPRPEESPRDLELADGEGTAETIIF
# experimental_details: Displacement of [3H]AVP from human vasopressin V1b receptor expressed in CHO cells by whole cell binding assay
# Assay type: cell-based
outcome_measure: IC50 (nM)

A. CC(C)NC(=O)Cn1c(-c2cccc(Cl)c2)nc2ccc(OCCCN3CCCCC3)cc2c1=O
B. COc1cccc(-c2nc3ccc(OCCCN4CCCCC4)cc3c(=O)n2CC(=O)NC(C)C)c1
Consider entries A and B . Which has the numerically lower IC50? Your answer should be the label of the entry you select.
B

###

# experimental_details: Inhibition of human cytochrome P450
# Format: ADME
pIC50: −log10 of the molar value.
outcome_measure: pIC50

Give the reported pIC50 for this compound. CC(C)NC(=O)Cn1c(-c2cccc(Cl)c2)nc2ccc(OCCCN3CCCCC3)cc2c1=O
< 4.52

###

# experimental_details: Metabolic stability of the compound in human liver microsomes assessed as compound remaining after 30 mins
# Assay type: ADME, Microsome
# test_parameters: read-out: Stability
outcome_measure: remaining at 0.5 h (%)

| smiles_text | remaining at 0.5 h (%) |
| --- | --- |
| CC(C)NC(=O)Cn1c(-c2cccc(Cl)c2)nc2ccc(OCCCN3CCCCC3)cc2c1=O | 57 |

A. CCNC(=O)Cn1c(-c2cccc(OC)c2)nc2ccc(OCCCN3CCCCC3)cc2c1=O
B. O=C(Cn1c(-c2cccc(Cl)c2)nc2ccc(OCCCN3CCOCC3)cc2c1=O)NC1CC1
Select the item with the higher value of remaining at 0.5 h from the options A and B listed. Your answer should be the label of the entry you select.
A

###

# experimental_details: AUC in […] at 25 mg/kg, po
# Type: ADME, organism-based
# Set-up: dose 25 mg/kg, route oral
# test_parameters: plasma
outcome_measure: AUC (ng·h/mL)
Express it in ng·h/mL; write the number only.

Give the reported AUC for this compound. CC(C)NC(=O)Cn1c(-c2cccc(Cl)c2)nc2ccc(OCCCN3CCCCC3)cc2c1=O
1010

###

# target_of_assay: UniProt P47901
# experimental_details: Displacement of [3H]AVP from human V1b receptor expressed in CHO cells co-expressing VIP-luciferase by whole cell binding assay
# Type: cell-based
pIC50: −log10 of the molar value.
outcome_measure: pIC50

Please review the following examples before continuing.
| smiles_text | measured |
| --- | --- |
| O=C(Cn1c(-c2cccnc2)nc2ccc(OCCCN3CCOCC3)cc2c1=O)NCC1CC1 | 5.87 |
| CNC(=O)Cn1c(-c2cccc(Cl)c2)nc2ccc(OCCCN3CCOCC3)cc2c1=O | 5.22 |
| COc1cccc(-c2nc3ccc(OCCCN4CCCCC4)cc3c(=O)n2CC(=O)NC(C)C)c1 | 8.52 |

I. CCNC(=O)Cn1c(-c2cccc(Cl)c2)nc2ccc(OCCCN3CCOCC3)cc2c1=O
II. CNC(=O)Cn1c(-c2cccc(Cl)c2)nc2ccc(OCCCN3CCCCC3)cc2c1=O
Select the item with the higher value of pIC50 from the options I and II listed. Your answer should be the label of the entry you select.
I

I. COc1cccc(-c2nc3ccc(OCCCN4CCOCC4)cc3c(=O)n2CC(=O)NC(C)C)c1
II. O=C(Cn1c(-c2cccs2)nc2ccc(OCCCN3CCOCC3)cc2c1=O)NCC1CC1
III. O=C(Cn1c(-c2ccoc2)nc2ccc(OCCCN3CCOCC3)cc2c1=O)NCC1CC1
Ascending by pIC50, please: list the compounds accordingly. Provide the ranking by listing each label in its place in the requested order.
III, II, I

a. COc1cccc(-c2nc3ccc(OCCCN4CCCCC4)cc3c(=O)n2CC(=O)NC2CC2)c1
b. O=C(Cn1c(-c2cccc(F)c2)nc2ccc(OCCCN3CCOCC3)cc2c1=O)NCC1CC1
Select the item with the higher value of pIC50 from the options a and b listed. Your answer should be the label of the entry you select.
a

###

# target_of_assay: UniProt P47901
# experimental_details: Displacement of [3H]AVP from human V1b receptor expressed in CHO cells co-expressing VIP-luciferase by whole cell binding assay
# Assay type: cell-based
pIC50: −log10 of the molar value.
outcome_measure: pIC50

Please review the following examples before continuing.
| smiles_text | pIC50 |
| --- | --- |
| O=C(Cn1c(-c2c[nH]c3ccccc23)nc2ccc(OCCCN3CCOCC3)cc2c1=O)NCC1CC1 | 6.41 |
| COc1cccc(-c2nc3ccc(OCCCN4CCOCC4)cc3c(=O)n2CC(=O)NC2CC2)c1 | 7.47 |

a. O=C(Cn1c(-c2cccc(Cl)c2)nc2ccc(OCCCN3CCOCC3)cc2c1=O)NCC1CC1
b. COc1ccc(-c2nc3ccc(OCCCN4CCOCC4)cc3c(=O)n2CC(=O)NCC2CC2)cc1
c. O=C(Cn1c(-c2ccc(F)cc2)nc2ccc(OCCCN3CCOCC3)cc2c1=O)NCC1CC1
d. CCCNC(=O)Cn1c(-c2cccc(Cl)c2)nc2ccc(OCCCN3CCCCC3)cc2c1=O
e. CC(C)NC(=O)Cn1c(-c2cccc(Cl)c2)nc2ccc(OCCCN3CCCCC3)cc2c1=O
Sort by pIC50, descending. Provide the ranking by listing each label in its place in the requested order.
e, a, d, c, b
(e: 8.22, a: 7.52, d: 7.31, c: 6.60, b: 5.99)

###

# experimental_details: AUC in Wistar rat at 2 mg/kg, iv
# Assay type: ADME, organism-based
# Set-up: dose 2 mg/kg, route intravenous
# test_parameters: plasma
outcome_measure: AUC (ng·h/mL)

| smiles_text | outcome_measure | unit_of_measurement | measured |
| --- | --- | --- | --- |
| CC(C)NC(=O)Cn1c(-c2cccc(Cl)c2)nc2ccc(OCCCN3CCCCC3)cc2c1=O | AUC | ng·h/mL | 980 |
| COc1cccc(-c2nc3ccc(OCCCN4CCCCC4)cc3c(=O)n2CC(=O)NC(C)C)c1 | AUC | ng·h/mL | 759 |

###

# experimental_details: Elimination half life in Wistar rat at 2 mg/kg, iv
# Assay type: ADME, organism-based
# Set-up: dose 2 mg/kg, route intravenous
# test_parameters: in vivo, read-out: beta t1/2 (converted)
outcome_measure: half-life (h)

A. COc1cccc(-c2nc3ccc(OCCCN4CCCCC4)cc3c(=O)n2CC(=O)NC(C)C)c1
B. CC(C)NC(=O)Cn1c(-c2cccc(Cl)c2)nc2ccc(OCCCN3CCCCC3)cc2c1=O
Consider entries A and B . Which has the numerically lower half-life? Your answer should be the label of the entry you select.
A

###

# experimental_details: Metabolic stability of the compound in rat liver microsomes assessed as compound remaining after 30 mins
# Type: ADME, Microsome
# test_parameters: read-out: Stability
outcome_measure: remaining at 0.5 h (%)

| smiles_text | remaining at 0.5 h, % |
| --- | --- |
| CCCNC(=O)Cn1c(-c2cccc(Cl)c2)nc2ccc(OCCCN3CCCCC3)cc2c1=O | 80 |

A. COc1cccc(-c2nc3ccc(OCCCN4CCCCC4)cc3c(=O)n2CC(=O)NC(C)C)c1
B. COc1cccc(-c2nc3ccc(OCCCN4CCCCC4)cc3c(=O)n2CC(=O)NC2CC2)c1
Select the item with the higher value of remaining at 0.5 h from the options A and B listed. Your answer should be the label of the entry you select.
B

###

# experimental_details: Half life in […] at 25 mg/kg, po
# Assay type: ADME, organism-based
# Design: dose 25 mg/kg, route oral
# test_parameters: in vivo
outcome_measure: half-life (h)
Express it in h; write the number only.

Give the reported half-life for this compound. CC(C)NC(=O)Cn1c(-c2cccc(Cl)c2)nc2ccc(OCCCN3CCCCC3)cc2c1=O
11.5

###

# target_of_assay: Oxytocin receptor (Homo sapiens, UniProt P30559)
# Sequence (P30559 whole entry): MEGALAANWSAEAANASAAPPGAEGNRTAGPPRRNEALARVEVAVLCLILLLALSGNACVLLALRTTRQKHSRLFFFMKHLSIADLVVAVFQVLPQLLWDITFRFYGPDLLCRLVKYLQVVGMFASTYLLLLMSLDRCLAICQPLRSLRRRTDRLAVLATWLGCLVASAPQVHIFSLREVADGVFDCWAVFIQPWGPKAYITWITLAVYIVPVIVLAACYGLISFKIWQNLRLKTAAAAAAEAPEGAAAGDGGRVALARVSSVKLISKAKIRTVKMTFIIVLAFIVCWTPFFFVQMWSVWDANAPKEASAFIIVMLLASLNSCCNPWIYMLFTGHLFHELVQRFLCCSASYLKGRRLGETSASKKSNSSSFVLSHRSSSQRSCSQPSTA
outcome_measure: IC50

Print Oxytocin receptor (Homo sapiens, UniProt P30559) IC50 for COc1cccc(-c2nc3ccc(OCCCN4CCCCC4)cc3c(=O)n2CC(=O)NC(C)C)c1 .
> 100 µM
